test system: Bovine cardiac myofibrils; experiment: In vitro model of dose-dependent myofibril ATPase modulation (AC1.4, pyruvate kinase/lactate dehydrogenase-coupled ATPase assay at pCa25); assay type: biochemical; conditions: concentration at which ATPase activity was 1.4-fold higher than the bottom of the dose curve, mean of a minimum of two independent tests
measurement.type: AC1.4 (µM)

Please review the following examples before continuing.
[[record]]
compound = "Cc1ccc(CNC(=O)[C@H]2CCCN2C(=O)c2cccc(S(=O)(=O)N3CC(C#N)C3)c2)nc1"
experimental_system = "Bovine cardiac myofibrils"
measurement_type = "AC1.4"
observed_result = 2.5075

[[record]]
compound = "CS(=O)(=O)c1cncc(C(=O)N2CSC[C@@H]2C(=O)N[C@@H](c2ccc(C(F)(F)F)cc2F)C2CC2)c1"
experimental_system = "Bovine cardiac myofibrils"
measurement_type = "AC1.4"
observed_result = 0.9661


(1) CS(=N)(=O)c1cccc(C(=O)N2[C@@H](C(=O)N[C@@H](c3cc(F)c(Cl)cc3F)C3CC3)C[C@H]3C[C@H]32)c1 (stereo partly shown)
(2) C[C@H](NC(=O)[C@H]1CCCN1C(=O)c1cccc(S(=O)(=O)N2CC(C#N)C2)c1)c1ccc(Cl)cc1
// pick min by AC1.4: 1 , 2 API: response body contains the label of the selected item.
2
(2: 0.8972 µM, 1: 7.417 µM)

====

system: Bovine cardiac myofibrils; test: In vitro model of dose-dependent myofibril ATPase modulation (AC1.4, pyruvate kinase/lactate dehydrogenase-coupled ATPase assay at pCa25); format: biochemical; settings: concentration at which ATPase activity was 1.4-fold higher than the bottom of the dose curve, mean of a minimum of two independent tests
measurement.type: AC1.4 (µM)

Field: example entries. Status: answers known.
[[record]]
molecule = "CS(=O)(=O)c1cncc(C(=O)N2[C@@H](C(=O)N[C@@H](c3cc(F)c(C(F)(F)F)cc3F)C3CC3)C[C@H]3C[C@H]32)c1 [Example 214]"
measurement_type = "AC1.4"
observed_result = 0.4665

[[record]]
molecule = "N#CC1CN(S(=O)(=O)N2CCC[C@H](C(=O)N3CCC[C@@H]3C(=O)NCc3ccc(Cl)nc3)C2)C1 [Example 613]"
measurement_type = "AC1.4"
observed_result = 3.8643

[[record]]
molecule = "N#CC1CN(S(=O)(=O)N2CCC[C@H](C(=O)N3CCC[C@@H]3C(=O)NCc3cc(Cl)ccc3Cl)C2)C1 [Example 651]"
measurement_type = "AC1.4"
observed_result = 4.4705

[[record]]
molecule = "CS(=O)(=O)c1cccc(C(=O)N2C[C@@H](F)C[C@@H]2C(=O)N[C@@H](c2ccc(Cl)c(F)c2)C2COC2)c1 [Example 365]"
measurement_type = "AC1.4"
observed_result = 1.139

[[record]]
molecule = "N#CC1CN(S(=O)(=O)N2CCC[C@H](C(=O)N3CCC[C@@H]3C(=O)NC3CCc4ccccc43)C2)C1 (some centres unmarked) [Example 442]"
measurement_type = "AC1.4"
observed_result = 1.7305

[[record]]
molecule = "CC(C)(C)[C@@H](NC(=O)[C@H]1CCCN1C(=O)[C@H]1CCCN(S(=O)(=O)N2CC(C#N)C2)C1)c1ccc(C(F)(F)F)cc1 [Example 740]"
measurement_type = "AC1.4"
observed_result = 7.156

[[record]]
molecule = "O=C(N[C@@H](c1cc(F)c(Cl)cc1F)C1COC1)[C@H]1C[C@H]2C[C@H]2N1C(=O)c1cc(C(F)(F)F)ncn1 [Example 487]"
measurement_type = "AC1.4"
observed_result = 2.218

[[record]]
molecule = "N#CC1CN(S(=O)(=O)c2cccc(C(=O)N3CCC[C@@H]3C(=O)NCc3ccccc3Cl)c2)C1 [Example 396]"
measurement_type = "AC1.4"
observed_result = 1.3975

[[record]]
molecule = "Cc1nnc(CNS(=O)(=O)N2CCC[C@H](C(=O)N3CCC[C@@H]3C(=O)NCc3ccc(C(F)(F)F)cc3)C2)o1 [Example 774]"
measurement_type = "AC1.4"
observed_result = 8.3045

[[record]]
molecule = "CC[C@@H](NC(=O)[C@H]1CCCN1C(=O)c1cccc(S(=O)(=O)N(C)C)c1)c1ccc(Cl)c(F)c1 [Example 259]"
measurement_type = "AC1.4"
observed_result = 0.6372


(a) N#CC1CN(S(=O)(=O)N2CCN[C@H](C(=O)N3CCC[C@@H]3C(=O)NCc3ccc(C(F)(F)F)cc3F)C2)C1 [Example 200]
(b) C[C@@H](NC(=O)[C@H]1CCCN1C(=O)c1cc(F)cc(S(=O)(=O)N2CC(C#N)C2)c1)c1ccc(C(F)(F)F)cc1 [Example 16]
(c) O=C(N[C@@H](c1ccc(C(F)(F)F)cc1F)C1COC1)[C@H]1C[C@H]2C[C@H]2N1C(=O)c1cncc(C2CC2)c1 [Example 611]
(d) O=C(N[C@@H](c1ccc(C(F)(F)F)cc1F)C1CC1)[C@H]1CCCN1C(=O)c1cccc(C(F)(F)F)c1 [Example 252]
(e) N#C[C@H]1C[C@@H](S(=O)(=O)N2CCC[C@H](C(=O)N3CCC[C@@H]3C(=O)NCc3ccc(C(F)(F)F)cc3)C2)C1 [Example 59]
Order the records, beginning with the lowest AC1.4 and ending with the highest. // ordering of labels required in reply
b, e, a, d, c
(b: 0.0238 µM, e: 0.06495 µM, a: 0.4083 µM, d: 0.6066 µM, c: 3.788 µM)

====

tested on: Bovine cardiac myofibrils; assay: In vitro model of dose-dependent myofibril ATPase modulation (AC1.4, pyruvate kinase/lactate dehydrogenase-coupled ATPase assay at pCa25); type: biochemical; conditions: concentration at which ATPase activity was 1.4-fold higher than the bottom of the dose curve, mean of a minimum of two independent tests
measurement.type: AC1.4 (µM)

[[record]]
structure_notation = "NC(=O)[C@H]1C[C@H](S(=O)(=O)N2CCC[C@H](C(=O)N3CCC[C@@H]3C(=O)NCc3ccc(C(F)(F)F)cc3)C2)C1"
observed_result = 4.031


(P) COc1ccc(S(C)(=O)=O)cc1C(=O)N1[C@@H](C(=O)N[C@@H](c2ccc(C(F)(F)F)cc2)C2COC2)C[C@H]2C[C@H]21
(Q) O=C(N[C@@H](c1cc(F)c(Cl)cc1F)C1CC1)[C@H]1C[C@H]2C[C@H]2N1C(=O)c1cccc(S(=O)(=O)CCO)c1
Would you let me know which has the greater AC1.4 value, P or Q ? Refer to your chosen entry by its label in the reply.
P
(P: 4.6765 µM, Q: 0.1762 µM)

====

tested on: Bovine cardiac myofibrils; experiment: In vitro model of dose-dependent myofibril ATPase modulation (AC1.4, pyruvate kinase/lactate dehydrogenase-coupled ATPase assay at pCa25); assay type: biochemical; details: concentration at which ATPase activity was 1.4-fold higher than the bottom of the dose curve, mean of a minimum of two independent tests
measurement.type: AC1.4 (µM)

[[record]]
compound = "COCC(=O)NC1CN(S(=O)(=O)N2CCC[C@H](C(=O)N3CCC[C@@H]3C(=O)NCc3ccc(C(F)(F)F)cc3)C2)C1"
unit_name = "µM"
observed_result = 5.379

[[record]]
compound = "COc1ccc(F)cc1C(C)NC(=O)[C@H]1CCCN1C(=O)[C@H]1CCCN(S(=O)(=O)N2CC(C#N)C2)C1 (stereo partly shown)"
unit_name = "µM"
observed_result = 4.0935

[[record]]
compound = "Cc1ccnc(C(=O)N2[C@@H](C(=O)N[C@@H](c3cc(F)c(Cl)cc3F)C3CC3)C[C@H]3C[C@H]32)c1"
unit_name = "µM"
observed_result = 5.6535


(I) CCS(=O)(=O)c1cccc(C(=O)N2[C@@H](C(=O)N[C@H](C)c3cc(F)c(Cl)cc3F)C[C@H]3C[C@H]32)c1
(II) N#CC1CN(S(=O)(=O)N2CCC[C@H](C(=O)N3CCC[C@@H]3C(=O)NCc3cc(F)cc(F)c3)C2)C1
(III) O=C(NCc1ccc(C(F)(F)F)cc1)[C@H]1CCCN1C(=O)[C@H]1CCCN(S(=O)(=O)N2CC(n3cccc3)C2)C1
Order the records so the highest AC1.4 appears first and the lowest last. Show the ranking through the labels, in the order asked for.
I, III, II
(I: 2.3655 µM, III: 1.1962 µM, II: 0.7212 µM)

====

tested on: Bovine cardiac myofibrils; test: In vitro model of dose-dependent myofibril ATPase modulation (AC1.4, pyruvate kinase/lactate dehydrogenase-coupled ATPase assay at pCa25); format: biochemical; conditions: concentration at which ATPase activity was 1.4-fold higher than the bottom of the dose curve, mean of a minimum of two independent tests
measurement.type: AC1.4 (µM)

[[record]]
compound = "CS(=O)(=O)c1cccc(C(=O)N2[C@@H](C(=O)N[C@@H](c3cc(F)c(Cl)cc3F)C3COC3)C[C@H]3C[C@H]32)c1"
observed_result = 0.09935

[[record]]
compound = "NC(=O)[C@H]1C[C@@H](S(=O)(=O)N2CCC[C@H](C(=O)N3CCC[C@@H]3C(=O)NCc3ccc(C(F)(F)F)cc3)C2)C1"
observed_result = 1.5805

[[record]]
compound = "COC(=O)C1CC(S(=O)(=O)N2CCC[C@H](C(=O)N3CCC[C@@H]3C(=O)NCc3ccc(C(F)(F)F)cc3)C2)C1 (stereo partly drawn)"
observed_result = 2.457


(a) COc1ccc2c(c1)[C@H](NC(=O)[C@H]1CCCN1C(=O)[C@H]1CCCN(S(=O)(=O)N3CC(C#N)C3)C1)CCO2
(b) CS(=O)(=O)c1cccc(C(=O)N2C[C@@H](F)C[C@@H]2C(=O)N[C@@H](c2cc(F)c(C(F)(F)F)cc2F)C2CC2)c1
Look at a and b . Which one has the lower recorded AC1.4 number? Answer by stating the label of the chosen item.
b
(b: 0.3001 µM, a: 8.7825 µM)
